TARGET_SYSTEM: full-length beta-Catenin (Uniprot ID P35222) (Homo sapiens (Human)) (UniProt P35222)
Sequence (P35222 2-781 limits assumed): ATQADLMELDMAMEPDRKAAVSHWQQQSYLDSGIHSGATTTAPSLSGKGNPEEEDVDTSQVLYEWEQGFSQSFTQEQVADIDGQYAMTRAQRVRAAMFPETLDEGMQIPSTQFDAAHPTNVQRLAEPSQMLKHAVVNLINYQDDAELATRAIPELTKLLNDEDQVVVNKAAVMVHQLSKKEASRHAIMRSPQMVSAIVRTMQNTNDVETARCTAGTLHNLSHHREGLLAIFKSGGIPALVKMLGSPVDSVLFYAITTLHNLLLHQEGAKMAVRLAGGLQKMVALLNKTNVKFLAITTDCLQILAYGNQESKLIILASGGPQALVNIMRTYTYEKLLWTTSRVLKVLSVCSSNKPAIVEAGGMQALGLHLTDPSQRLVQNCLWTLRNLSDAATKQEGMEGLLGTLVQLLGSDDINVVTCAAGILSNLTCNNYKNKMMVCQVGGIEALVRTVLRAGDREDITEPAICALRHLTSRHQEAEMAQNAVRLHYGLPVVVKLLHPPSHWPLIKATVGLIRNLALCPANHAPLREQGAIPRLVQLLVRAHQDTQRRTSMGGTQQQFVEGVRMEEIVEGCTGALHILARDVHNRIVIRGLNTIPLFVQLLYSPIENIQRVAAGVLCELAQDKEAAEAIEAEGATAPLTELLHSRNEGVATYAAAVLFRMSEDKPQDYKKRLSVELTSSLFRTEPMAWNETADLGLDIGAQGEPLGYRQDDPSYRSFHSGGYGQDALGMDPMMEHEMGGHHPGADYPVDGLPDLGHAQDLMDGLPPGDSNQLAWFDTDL
TEST_NAME: fluorescence polarization competition; full-length beta-catenin, competitor 5FAM-TCF4 10-53 probe
Starred links: 1 amine or outer side, 2 acyl side, 3 side chain; linkers in the order of their positions; H or OH if unused. Positions of bridges follow the written chain, without caps; N, C: chain ends. Non-standard residues stand in square brackets, D forms with d. Primed or numbered codes have the meaning given here. PyrS2″ = (S)-3-amino-1-((pent-4-en-1-yloxy)carbonyl)pyrrolidine-3-carboxylic acid (stapling residue), C=CCCCOC(=O)N1CC[C@@](N[*:1])(C(=O)[*:2])C1; PyrS2 = (S)-3-amino-1-((pent-4-en-1-yloxy)carbonyl)pyrrolidine-3-carboxylic acid, C=CCCCOC(=O)N1CC[C@@](N[*:1])(C(=O)[*:2])C1; B5(12) = 2-amino-2-(pent-4-en-1-yl)hept-6-enoic acid (two olefin side chains), C=CCCCC(CCCC=C)(N[*:1])C(=O)[*:2]; B5(19) = 2-amino-2-(pent-4-en-1-yl)hept-6-enoic acid (bis(4-pentenyl)glycine), C=CCCCC(CCCC=C)(N[*:1])C(=O)[*:2]; Phe(3-COOH) = N[C@@H](Cc1cccc(C(=O)O)c1)C(=O)O; Phe(2-Cl) = N[C@@H](Cc1ccccc1Cl)C(=O)O; Bta = N[C@@H](Cc1csc2ccccc12)C(=O)O; αAllylPro = C=CC[C@@]1(C(=O)O)CCCN1; tBuAla = CC(C)(C)C[C@H](N)C(=O)O; 3Thi = N[C@@H](Cc1ccsc1)C(=O)O; S8 = C=CCCCCCC[C@](C)(N)C(=O)O; hSer = N[C@@H](CCO)C(=O)O; Nle = CCCC[C@H](N)C(=O)O
Give measured IC50 for each item. Keep answers brief.
Numbers only, in nM.

Study these solved cases before continuing.
Ac-[αAllylPro]D[Nle][B5(19)]DDAAF[Nle][PyrS2][3Thi][Bta]Q-NH2 (staple 1-4, 4-11) [I-1401]
5
Ac-[αAllylPro]DL[B5(12)]D[Phe(3-COOH)]AAFL[PyrS2″][3Thi][Bta]Q-NH2 (staple 1-4, 4-11) [I-1406]
6
Ac-[αAllylPro]D[Nle][B5(12)]DDAAF[Nle][PyrS2″]F[Bta]Q-NH2 (staple 1-4, 4-11) [I-1405]
9
Ac-[αAllylPro]D[tBuAla][B5(19)]DDAAF[hSer][S8][Phe(2-Cl)][Bta]Q-NH2 (staple 1-4, 4-11) [I-1395]
33
Ac-[αAllylPro]DL[B5(12)]DDAAFL[PyrS2″][3Thi][Bta]L-NH2 (staple 1-4, 4-11) [I-1410]
80
Ac-[αAllylPro]DN[B5(12)]DDAAFL[PyrS2″][3Thi][Bta]L-NH2 (staple 1-4, 4-11) [I-1413]
74

# next binder below
Query :: Fill in: IC50 of Ac-[αAllylPro]DL[B5(12)]DDAAF[Nle][PyrS2″]F[Bta]Q-NH2 (staple 1-4, 4-11) [I-1404] is ___
Result :: 113
